Data provenance: patent US20200069609A1

# system_under_test: GST-LC3B (Homo sapiens, UniProt Q9GZQ8)
# Construct: This fusion protein was used directly in the fluorescence polarization assay; made in house
# protocol_description: Fluorescence polarization (FP) assay, GST-LC3B with FITC-labeled peptide
# Format: binding
# run_parameters: Table 2, comparative compounds; GST-LC3B 180 nM, FITC-labeled peptide 18 nM
value_type: IC50 (µM)

Cc1cc(NS(=O)(=O)c2ccc(NC(=O)c3ccc(C(=O)Nc4ccc(S(=O)(=O)Nc5cc(C)on5)cc4)cc3)cc2)no1 [compound 4, reference compound]: 28
Cc1ccc(C(=O)O)c(C(=O)Nc2ccc(-c3nc4ccc(C)cc4s3)cc2)c1 [compound 2, reference compound]: 50
Cc1ccc2c(C)c(C(=O)Nc3ccc(S(=O)(=O)Nc4onc(C)c4C)cc3)oc2c1 [compound 6, reference compound]: 47

(a) CC1=CCC(C(=O)O)C(C(=O)Nc2ccc(-c3nc4ccc(C)cc4s3)cc2)C1 (centres unmarked) [compound 1, reference compound]
(b) CCOc1c(I)cc(/C=N\Nc2ccc(C(=O)O)cc2)cc1OC [compound 3, reference compound]
Just tell me: smaller IC50 value, a or b ? Answer format: the label of the selected item.
b
(b: 28 µM, a: 46 µM)
